- Measurement target: HLA-A*68:01
- Measurement description: IEDB peptide-MHC binding, purified MHC/competitive/radioactivity; bounds were set here for any values at or beyond the usual limits of such assays
- Settings: source organism: Hepatitis B virus
Recorded pIC50 for the following sequences
API: returns pIC50 as number; meaning -log10 of concentration in mol/L.

Output pIC50 of SAICSVVRR
7.64

Give pIC50 for QAFTFSPTYK
8.15

Specify pIC50 for HTLWKAGILYK and stop.
7.32

###

- Measurement target: HLA-A*24:02
- Measurement description: IEDB peptide-MHC binding, purified MHC/competitive/radioactivity; bounds were set here for any values at or beyond the usual limits of such assays
- Settings: source organism: Hepatitis B virus
Quantity name: pIC50
Just so you know, pIC50 here is -log10 of the concentration in molar units; reply with that number alone.

INSERT INTO assay_data (residue_string, quantity_name, reported_measurement) VALUES
  ('LWFHISCLTF', 'pIC50', 8.19);

Let's switch to this sequence now.
Respond only with pIC50 recorded for RFSWLSLLVPF
7.00

###

- Measurement target: HLA-A*02:06
- Measurement description: IEDB peptide-MHC binding, purified MHC/competitive/radioactivity; bounds were set here for any values at or beyond the usual limits of such assays
- Settings: source organism: Hepatitis B virus
Quantity name: IC50 (nM)
// units = nM; emit number, no label

For YMDDVVLGV , write its IC50.
90.6

###

# pIC50 per entry
- Measurement target: HLA-A*29:02
- Measurement description: IEDB peptide-MHC binding, purified MHC/competitive/radioactivity; bounds were set here for any values at or beyond the usual limits of such assays
- Settings: source organism: Hepatitis B virus
Scale: pIC50 equals -log10([C]), with [C] in mol/L.

Example entries begin here.
INSERT INTO assay_data (residue_string, quantity_name, reported_measurement) VALUES
  ('ASFCGSPY', 'pIC50', 7.06),
  ('WMMWYWGPSLY', 'pIC50', 6.87);

Pending sequence:
Output measured pIC50 for this item: LSLDVSAAFY
7.35

###

- Measurement target: HLA-B*51:01
- Measurement description: IEDB peptide-MHC binding, purified MHC/competitive/radioactivity; bounds were set here for any values at or beyond the usual limits of such assays
- Settings: source organism: Hepatitis B virus
Quantity name: IC50 (nM)
Express the result in nM but write the number alone.

INSERT INTO measurements (residue_string, reported_measurement) VALUES
  ('FPHCLAFSYM', 68.9);

Provide measured IC50 value, entry: YPALMPLYACI
119

###

- Measurement target: HLA-A*02:02
- Measurement description: IEDB peptide-MHC binding, purified MHC/competitive/radioactivity; bounds were set here for any values at or beyond the usual limits of such assays
- Settings: source organism: Hepatitis B virus
Quantity name: pIC50
The quantity pIC50 is defined as the negative base-10 logarithm of the molar concentration.

State its pIC50: YMDDVVLGV
7.04

###

- Measurement target: HLA-A*23:01
- Measurement description: IEDB peptide-MHC binding, purified MHC/competitive/radioactivity; bounds were set here for any values at or beyond the usual limits of such assays
- Settings: source organism: Hepatitis B virus
Quantity name: IC50 (nM)
Numbers only; they are read as nM.

INSERT INTO results (residue_string, reported_measurement) VALUES
  ('RFSWLSLLVPF', 12.6),
  ('RWMCLRRFII', 7.5);

Give IC50 for LWFHISCLTF
7.7
